Just for reference, patent US10342818B2 is where these values come from.

Recorded Ki, one value per entry.
Molecular target: human A2A receptor (Homo sapiens)
Sequence (P29274 whole entry): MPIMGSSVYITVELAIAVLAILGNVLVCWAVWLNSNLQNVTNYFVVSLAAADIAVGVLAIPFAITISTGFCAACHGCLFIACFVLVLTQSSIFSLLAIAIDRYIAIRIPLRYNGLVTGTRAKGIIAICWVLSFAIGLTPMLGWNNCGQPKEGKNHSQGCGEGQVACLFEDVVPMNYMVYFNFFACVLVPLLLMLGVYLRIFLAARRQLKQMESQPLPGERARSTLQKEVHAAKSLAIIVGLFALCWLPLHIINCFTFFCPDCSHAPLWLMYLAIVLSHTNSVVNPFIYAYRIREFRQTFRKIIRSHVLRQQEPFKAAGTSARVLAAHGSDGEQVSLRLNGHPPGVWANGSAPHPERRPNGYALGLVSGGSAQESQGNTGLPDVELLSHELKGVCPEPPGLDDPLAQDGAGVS
Experiment: Radioligand binding assay of the A2A receptor (3H-CGS21680, MDS Pharma Services)

>  <compound>
CCCCCCc1cn(C[C@H]2O[C@@H](n3cnc4c(NCc5ccc(OC)cc5)ncnc43)[C@H](O)[C@@H]2O)nn1

>  <tested-system>
human A2A receptor (Homo sapiens)

>  <Ki>
> 100 µM

$$$$
>  <compound>
CCCCc1cn(C[C@H]2O[C@@H](n3cnc4c(NCc5ccc(OC)cc5)ncnc43)[C@H](O)[C@@H]2O)nn1

>  <tested-system>
human A2A receptor (Homo sapiens)

>  <Ki>
> 100 µM

$$$$
>  <compound>
CCNC(=O)C1OC(n2cnc3c(NCc4ccc(O)cc4)ncnc32)C(O)C1O (centres unmarked)

>  <tested-system>
human A2A receptor (Homo sapiens)

>  <Ki>
20.3 µM

$$$$
>  <compound>
COc1ccc(CNc2ncnc3c2ncn3[C@@H]2O[C@H](CO)[C@@H](O)[C@H]2O)cc1

>  <tested-system>
human A2A receptor (Homo sapiens)

>  <Ki>
30.1 µM

$$$$
>  <compound>
COc1ccc(CNc2ncnc3c2ncn3C2OC(c3nnn[nH]3)C(O)C2O)cc1 (centres unmarked)

>  <tested-system>
human A2A receptor (Homo sapiens)

>  <Ki>
> 100 µM

$$$$
>  <compound>
COc1ccc(CNc2ncnc3c2ncn3[C@@H]2O[C@H](Cn3cc(C)nn3)[C@@H](O)[C@H]2O)cc1

>  <tested-system>
human A2A receptor (Homo sapiens)

>  <Ki>
41.8 µM

$$$$
>  <compound>
COc1ccc(CNc2ncnc3c2ncn3[C@@H]2O[C@H](CNC(C)=O)[C@@H](O)[C@H]2O)cc1

>  <tested-system>
human A2A receptor (Homo sapiens)

>  <Ki>
> 100 µM

$$$$
>  <compound>
O=[N+]([O-])c1ccc(CSc2ncnc3c2ncn3[C@@H]2O[C@H](CO)[C@@H](O)[C@H]2O)cc1 [NBTI, S-(4-nitrobenzyl)-6-thioinosine, reference compound]

>  <tested-system>
human A2A receptor (Homo sapiens)

>  <Ki>
> 10 µM

$$$$

----------
Ki, equilibrative nucleoside transporter 1 (ENT1) (Cavia porcellus): measured values
recorded-endpoint: Ki (µM)

>  <molecule>
COc1ccc(CNc2ncnc3c2ncn3[C@@H]2O[C@H](CN=[N+]=[N-])[C@H](O)C2O)cc1 (some centres unmarked)

>  <tested-system>
equilibrative nucleoside transporter 1 (ENT1) (Cavia porcellus)
Sequence (H0V4R7 1-461): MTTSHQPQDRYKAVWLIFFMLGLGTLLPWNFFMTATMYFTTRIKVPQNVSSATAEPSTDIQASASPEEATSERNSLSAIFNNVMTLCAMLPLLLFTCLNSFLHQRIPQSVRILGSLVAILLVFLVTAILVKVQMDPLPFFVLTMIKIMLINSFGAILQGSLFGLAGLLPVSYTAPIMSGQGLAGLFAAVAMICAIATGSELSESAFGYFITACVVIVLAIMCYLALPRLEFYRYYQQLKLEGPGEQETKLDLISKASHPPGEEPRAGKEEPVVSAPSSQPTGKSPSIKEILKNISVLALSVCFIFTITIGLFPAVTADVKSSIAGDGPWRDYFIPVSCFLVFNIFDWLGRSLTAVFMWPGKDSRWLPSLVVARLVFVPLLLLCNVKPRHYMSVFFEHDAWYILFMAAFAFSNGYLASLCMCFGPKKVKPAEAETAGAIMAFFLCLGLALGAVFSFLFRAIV

>  <recorded-endpoint>
Ki

>  <result-units>
µM

>  <relation>
=

>  <result-value>
0.581

$$$$
>  <molecule>
CCCCCCc1cn(C[C@H]2O[C@@H](n3cnc4c(NCc5ccc(OC)cc5)ncnc43)[C@H](O)[C@@H]2O)nn1

>  <tested-system>
equilibrative nucleoside transporter 1 (ENT1) (Cavia porcellus)

>  <recorded-endpoint>
Ki

>  <result-units>
µM

>  <relation>
=

>  <result-value>
0.052

$$$$
>  <molecule>
COc1ccc(CNc2ncnc3c2ncn3[C@@H]2O[C@H](CNS(=O)(=O)c3ccc(C)cc3)[C@@H](O)[C@H]2O)cc1

>  <tested-system>
equilibrative nucleoside transporter 1 (ENT1) (Cavia porcellus)

>  <recorded-endpoint>
Ki

>  <result-units>
µM

>  <relation>
=

>  <result-value>
0.2

$$$$
>  <molecule>
CCNC(=O)C1OC(n2cnc3c(NCc4ccc(O)cc4)ncnc32)C(O)C1O (centres unmarked)

>  <tested-system>
equilibrative nucleoside transporter 1 (ENT1) (Cavia porcellus)

>  <recorded-endpoint>
Ki

>  <result-units>
µM

>  <relation>
>

>  <result-value>
10

$$$$
>  <molecule>
CC1(C)O[C@@H]2[C@H](O1)[C@@H](CO)O[C@H]2n1cnc2c(NCc3ccc(O)cc3)ncnc21 [Compound 1-acetonide, 1-acetonide]

>  <tested-system>
equilibrative nucleoside transporter 1 (ENT1) (Cavia porcellus)

>  <recorded-endpoint>
Ki

>  <result-units>
µM

>  <relation>
>

>  <result-value>
100

$$$$
